# Test system: Staphylococcus aureus ATCC 6538P
# Assay Name: In-vitro antimicrobial activity primary screen (agar dilution MIC)
# Format: cell-based
# Particulars: Staphylococcus aureus, ATCC6538P, 24 h, BHI agar, 20-24 h
Metric Name: MIC (µg/mL)
Note: unit µg/mL is implicit; provide only the numeric part.

CC[C@H]1OC(=O)[C@H](C)[C@@H](O[C@H]2C[C@@](C)(OC)[C@H](N)[C@H](C)O2)[C@H](C)[C@@H](O[C@@H]2O[C@H](C)C[C@H](N(C)C)[C@H]2O)[C@](C)(O)C[C@@H](C)[C@@H]2O[C@@]1(C)[C@@H](O)[C@H]2C: 0.2
CC[C@H]1OC(=O)[C@H](C)[C@@H](O[C@H]2C[C@@](C)(OC)[C@H](NCc3ccccc3)[C@H](C)O2)[C@H](C)[C@@H](O[C@@H]2O[C@H](C)C[C@H](N(C)C)[C@H]2O)[C@](C)(O)C[C@@H](C)[C@@H]2O[C@@]1(C)C(=O)[C@H]2C: 0.39
CC[C@H]1OC(=O)[C@H](C)[C@@H](O[C@H]2C[C@@](C)(OC)[C@@H](N)[C@H](C)O2)[C@H](C)[C@@H](O[C@@H]2O[C@H](C)C[C@H](N(C)C)[C@H]2O)[C@](C)(O)C[C@@H](C)[C@@H]2O[C@@]1(C)[C@@H](O)[C@H]2C: 0.39
CC[C@H]1OC(=O)[C@H](C)[C@@H](O[C@H]2C[C@@](C)(OC)[C@H](NC(C)=O)[C@H](C)O2)[C@H](C)[C@@H](O[C@@H]2O[C@H](C)C[C@H](N(C)C)[C@H]2O)[C@](C)(O)C[C@@H](C)[C@@H]2O[C@@]1(C)C(=O)[C@H]2C: 0.39
CC[C@H]1OC(=O)[C@H](C)[C@@H](O[C@H]2C[C@@](C)(OC)[C@H](NS(C)(=O)=O)[C@H](C)O2)[C@H](C)[C@@H](O[C@@H]2O[C@H](C)C[C@H](N(C)C)[C@H]2O)[C@](C)(O)C[C@@H](C)[C@@H]2O[C@@]1(C)C(=O)[C@H]2C: 0.39

# input Dear colleague, I am looking for the recorded MIC of the following compound: CC[C@H]1OC(=O)[C@H](C)[C@@H](O[C@H]2C[C@@](C)(OC)[C@@H](O)[C@H](C)O2)[C@H](C)[C@@H](O[C@@H]2O[C@H](C)C[C@H](N(C)C)[C@H]2O)[C@](C)(OC)C[C@@H](C)[C@@H]2O[C@@]1(C)[C@@H](O)[C@H]2C [Example 28A]
# output 0.2

# input Dear colleague, I am looking for the recorded MIC of the following compound: CC[C@H]1OC(=O)[C@H](C)[C@@H](O[C@H]2C[C@@](C)(OC)[C@H](NC(=O)OCc3ccccc3)[C@H](C)O2)[C@H](C)[C@@H](O[C@@H]2O[C@H](C)C[C@H](N(C)C)[C@H]2O)[C@](C)(O)C[C@@H](C)[C@@H]2O[C@@]1(C)C(=O)[C@H]2C
# output 0.2

----------
# System: Staphylococcus aureus CMX 686B
# Assay Name: In-vitro antimicrobial activity primary screen (agar dilution MIC)
# Assay type: cell-based
# Particulars: CMX686B, BHI agar, 20-24 h, read-out: MIC
Listed here: items and their measured MIC.
Note: unit µg/mL is implicit; provide only the numeric part.

CC[C@H]1OC(=O)[C@H](C)[C@@H](O[C@H]2C[C@@](C)(OC)[C@@H](NS(C)(=O)=O)[C@H](C)O2)[C@H](C)[C@@H](O[C@@H]2O[C@H](C)C[C@H](N(C)C)[C@H]2O)[C@](C)(O)C[C@@H](C)[C@@H]2O[C@@]1(C)C(=O)[C@H]2C: 0.39

Now consider a different compound.
# input Reported MIC for Staphylococcus aureus CMX 686B, given CC[C@H]1OC(=O)[C@H](C)[C@@H](O[C@H]2C[C@@](C)(OC)[C@H](NCc3ccccc3)[C@H](C)O2)[C@H](C)[C@@H](O[C@@H]2O[C@H](C)C[C@H](N(C)C)[C@H]2O)[C@](C)(O)C[C@@H](C)[C@@H]2O[C@@]1(C)C(=O)[C@H]2C ?
# output 0.39

----------
# Tested on: Staphylococcus aureus CMX 686B
# Assay Name: In-vitro antimicrobial activity primary screen (agar dilution MIC)
# Format: cell-based
# Particulars: CMX686B, BHI agar, 20-24 h, read-out: MIC
Metric Name: MIC (µg/mL)
Note: unit µg/mL is implicit; provide only the numeric part.

CC[C@H]1OC(=O)[C@H](C)[C@@H](O[C@H]2C[C@@](C)(OC)[C@H](N=CN(C)C)[C@H](C)O2)[C@H](C)[C@@H](O[C@@H]2O[C@H](C)C[C@H](N(C)C)[C@H]2O)[C@](C)(O)C[C@@H](C)[C@@H]2O[C@@]1(C)C(=O)[C@H]2C: 0.39

Now consider a different molecule.
# input Dear colleague, I am looking for the recorded MIC of the following molecule: CC[C@H]1OC(=O)[C@H](C)[C@@H](O[C@H]2C[C@@](C)(OC)[C@@H](O)[C@H](C)O2)[C@H](C)[C@@H](O[C@@H]2O[C@H](C)C[C@H](N(C)C)[C@H]2O)[C@](C)(O)C[C@@H](C)[C@@H]2O[C@@]1(C)C(=O)[C@H]2C
# output 0.39

----------
Listed here: items and their measured half-life.
# Assay Name: Pharmacokinetic evaluation in dogs after a 10 mg/kg dose
# Particulars: dog, plasma, iv, t1/2 (biological half life), IV 10 mg/kg, HPLC (parent drug)
Note: unit h is implicit; provide only the numeric part.

// worked examples, half-life included
CC[C@H]1OC(=O)[C@H](C)[C@@H](O[C@H]2C[C@@](C)(OC)[C@@H](O)[C@H](C)O2)[C@H](C)[C@@H](O[C@@H]2O[C@H](C)C[C@H](N(C)C)[C@H]2O)[C@](C)(O)C[C@@H](C)[C@@H]2O[C@@]1(C)[C@@H](N)[C@H]2C: 7.5
CC[C@H]1OC(=O)[C@H](C)[C@@H](O[C@H]2C[C@@](C)(OC)[C@@H](O)[C@H](C)O2)[C@H](C)[C@@H](O[C@@H]2O[C@H](C)C[C@H](N(C)C)[C@H]2O)[C@](C)(O)C[C@@H](C)[C@@H]2O[C@@]1(C)[C@@H](O)[C@H]2C: 2.9
CC[C@H]1OC(=O)[C@H](C)[C@@H](O[C@H]2C[C@@](C)(OC)[C@H](N)[C@H](C)O2)[C@H](C)[C@@H](O[C@@H]2O[C@H](C)C[C@H](N(C)C)[C@H]2O)[C@](C)(O)C[C@@H](C)[C@@H]2O[C@@]1(C)[C@@H](O)[C@H]2C: 9.9
CC[C@H]1OC(=O)[C@H](C)[C@@H](O[C@H]2C[C@@](C)(OC)[C@@H](N)[C@H](C)O2)[C@H](C)[C@@H](O[C@@H]2O[C@H](C)C[C@H](N(C)C)[C@H]2O)[C@](C)(O)C[C@@H](C)[C@@H]2O[C@@]1(C)[C@@H](N)[C@H]2C: 9.3

# input Dear colleague, I am looking for the recorded half-life of the following compound: CC[C@H]1OC(=O)[C@H](C)[C@@H](O[C@H]2C[C@@](C)(OC)[C@@H](O)[C@H](C)O2)[C@H](C)[C@@H](O[C@@H]2O[C@H](C)C[C@H](N(C)C)[C@H]2O)[C@](C)(O)C[C@@H](C)[C@@H]2O[C@@]1(C)C(=O)[C@H]2C
# output 12.2

----------
# Tested on: Micrococcus luteus ATCC 4698
# Assay Name: In-vitro antimicrobial activity primary screen (agar dilution MIC)
# Format: cell-based
# Particulars: Micrococcus luteus, ATCC4698, 24 h, BHI agar, 20-24 h
# Procedure: The antimicrobial spectra of several of the compounds of the present invention were tested as described below. Twelve petri dishes containing successive aqueous dilutions of the test compounds, mixed with 10 mL of sterilized Brain Heart Infusion (BHI) agar (Difco 0418-01-5), were prepared. […] After incubation, each plate was read. […]
Listed here: items and their measured MIC.
Note: unit µg/mL is implicit; provide only the numeric part.

// worked examples, MIC included
CC[C@H]1OC(=O)[C@H](C)[C@@H](O[C@H]2C[C@@](C)(OC)[C@@H](OC(N)=O)[C@H](C)O2)[C@H](C)[C@@H](O[C@@H]2O[C@H](C)C[C@H](N(C)C)[C@H]2O)[C@](C)(O)C[C@@H](C)[C@@H]2O[C@@]1(C)[C@@H](O)[C@H]2C: 0.2
CC[C@H]1OC(=O)[C@H](C)[C@@H](O[C@H]2C[C@@](C)(OC)[C@H](NS(C)(=O)=O)[C@H](C)O2)[C@H](C)[C@@H](O[C@@H]2O[C@H](C)C[C@H](N(C)C)[C@H]2O)[C@](C)(O)C[C@@H](C)[C@@H]2O[C@@]1(C)C(=O)[C@H]2C: 0.1

# input Dear colleague, I am looking for the recorded MIC of the following compound: CC[C@H]1OC(=O)[C@H](C)[C@@H](O[C@H]2C[C@@](C)(OC)[C@@H](N)[C@H](C)O2)[C@H](C)[C@@H](O[C@@H]2O[C@H](C)C[C@H](N(C)C)[C@H]2O)[C@](C)(O)C[C@@H](C)[C@@H]2O[C@@]1(C)C(=O)[C@H]2C
# output 0.1
